Attribution: patent US20250340551A1

Assay system UniProt:P42226; read-out recorded as pKd.
Sequence (P42226 122-658): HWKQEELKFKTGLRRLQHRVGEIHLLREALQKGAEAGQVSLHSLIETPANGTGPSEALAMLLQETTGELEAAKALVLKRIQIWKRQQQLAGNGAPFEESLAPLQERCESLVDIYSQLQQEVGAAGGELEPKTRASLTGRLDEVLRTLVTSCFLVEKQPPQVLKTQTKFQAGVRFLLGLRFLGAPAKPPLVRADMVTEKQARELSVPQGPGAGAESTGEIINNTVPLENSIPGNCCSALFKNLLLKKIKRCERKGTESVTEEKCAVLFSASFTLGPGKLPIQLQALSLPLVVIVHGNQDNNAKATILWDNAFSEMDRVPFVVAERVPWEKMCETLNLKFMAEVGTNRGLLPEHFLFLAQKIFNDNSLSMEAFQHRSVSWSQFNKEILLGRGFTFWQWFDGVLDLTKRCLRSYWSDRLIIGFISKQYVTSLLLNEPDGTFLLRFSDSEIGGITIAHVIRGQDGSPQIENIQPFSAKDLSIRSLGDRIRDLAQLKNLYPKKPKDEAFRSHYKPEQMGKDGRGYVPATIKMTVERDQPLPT
# pKd = -log10(concentration in molar units)

CN(C)C(=O)c1ccc(C2CCN(Cc3cc4c(-c5cnc(N)nc5)ccnc4n3C)CC2)cc1 [Example 1k13]	7.06
C[C@H]1C[C@@H](c2ccc(C(=O)N(C)C)cc2)CCN1Cc1cc2c(-c3ccc(N)nc3C#N)ccnc2n1C (single isomer, unassigned) [Example 1q5]	7.24
C[C@@H]1CN(c2ccc(C(=O)N(C)C)cc2)CCN1Cc1cc2c(-c3ccc(N)nc3)ccnc2n1C [Example 1n4]	6.83
CNc1ccc(-c2ccnc3c2cc(CN2CC=C(c4ccc(C(=O)N(C)C)cc4C)CC2)n3C)[n+]([O-])c1 [Example 1u3]	7.80
CN(C)C(=O)c1ccc(N2CCN(Cc3cc4c(-c5ccc(N)nc5)ccnc4n3C)C(=O)C2)cc1 [Example 1ae7]	7.17

Q) Please report the recorded pKd for CNc1ccc(-c2ccnc3c2cc(CN2CCC(c4ccc(C(=O)N(C)C)cc4)CC2=O)n3C)cn1 (stereo in doubt) [Example 1s4] .
A) 7.29

Q) Field entry: C[C@H](c1cc2c(-c3ccc(N)cn3)ccnc2n1C)N1CCC(c2ccc(C(=O)N(C)C)cc2)CC1 [Example 1af16]
A) 7.81

Q) Field entry: CN(C)C(=O)c1ccc(C2CCN(Cc3cc4c(-c5cnc(N)c(C(F)(F)F)c5)ccnc4n3C)CC2)cc1 [Example 1k36]
A) 5.95

Q) Field entry: CNc1ccc(-c2ccnc3c2cc(CN2CCC(c4ccc(C(=O)N(C)C)cc4F)CC2)n3C)cn1 [Example 1s30]
A) 7.66

Q) Field entry: [2H]C([2H])([2H])N(C(=O)c1ccc(C2CCN(Cc3cc4c(-c5cnc(N)cc5F)ccnc4n3C)CC2)cc1)C([2H])([2H])[2H] [Example 1k16]
A) 7.65

Q) Field entry: CN(C)C(=O)c1ccc(C2CCN(Cc3cc4c(-c5c(C(F)F)cc(N)cc5C(F)F)ccnc4n3C)CC2)cc1 [Example 1k55]
A) 6.00

Q) Field entry: CNc1ccc(-c2ccnc3c2cc(C(C)N2CCC(c4ccc(C(=O)N(C)C)cc4)CC2)n3C)cn1 (centres unmarked) [Example 1z13]
A) 7.65

Q) Field entry: Cc1cc(N)cc(C)c1-c1ccnc2c1cc(CN1CCC(c3ccc(C(=O)N(C)C)cc3)CC1)n2C [Example 1k32]
A) 5.91

Q) Field entry: CN(C)C(=O)c1ccc(C2CCN(Cc3cc4c(-c5cnc(N)cc5CO)ccnc4n3C)CC2)cc1 [Example 1k49]
A) 6.83
